testSystem: UniProt:Q06187
Sequence (Q06187 whole entry, looked up): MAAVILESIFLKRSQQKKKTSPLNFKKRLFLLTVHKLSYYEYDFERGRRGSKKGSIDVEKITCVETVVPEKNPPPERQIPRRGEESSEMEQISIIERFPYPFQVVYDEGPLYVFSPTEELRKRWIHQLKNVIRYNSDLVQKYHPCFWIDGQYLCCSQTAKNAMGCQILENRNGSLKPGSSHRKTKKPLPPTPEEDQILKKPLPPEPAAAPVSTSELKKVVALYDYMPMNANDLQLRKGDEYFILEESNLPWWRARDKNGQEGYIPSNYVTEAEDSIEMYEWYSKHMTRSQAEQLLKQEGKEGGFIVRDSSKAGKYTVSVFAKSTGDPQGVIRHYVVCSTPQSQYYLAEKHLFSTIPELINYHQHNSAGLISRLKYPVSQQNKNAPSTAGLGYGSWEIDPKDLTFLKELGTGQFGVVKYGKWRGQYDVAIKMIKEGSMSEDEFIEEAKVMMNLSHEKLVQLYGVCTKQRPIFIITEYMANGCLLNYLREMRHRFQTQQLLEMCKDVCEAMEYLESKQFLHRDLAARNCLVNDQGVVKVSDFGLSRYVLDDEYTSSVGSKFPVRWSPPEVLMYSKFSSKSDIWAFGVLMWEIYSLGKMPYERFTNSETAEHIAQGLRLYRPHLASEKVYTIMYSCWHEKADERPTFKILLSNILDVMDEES
procedureSummary: BTK kinase inhibition, dose response, biochemical, Z'-LYTE, FRET readout, direct format (AID 1671224)
testConditions: recombinant BTK, Z'-LYTE FRET peptide phosphorylation
endpointName: IC50

GET /values?readout=IC50&system=UniProt:Q06187&item= COc1cc2ncnc(Nc3cccc(Cl)c3)c2cc1OC
3.61 µM
